meta.source: the Immune Epitope Database (IEDB)

# TARGET ENTITY: HLA-A*01:01
# ASSAY SUMMARY: IEDB peptide-MHC binding, purified MHC/direct/fluorescence; filed as Kd, often an IC50 or EC50 that approximates it; bounds were set here for any values at or beyond the usual limits of such assays
# CONDITION: source organism: Pseudomonas aeruginosa
pKd: −log10 of the molar value.
MEASURED METRIC: pKd

• LPQTRWQAV = ≤ 4.70

Please turn your attention to the following entry.
// returns reported pKd for input VVAVGGLAI
≤ 4.70

---

# TARGET ENTITY: HLA-B*18:01
# ASSAY SUMMARY: IEDB peptide-MHC binding, purified MHC/direct/fluorescence; filed as Kd, often an IC50 or EC50 that approximates it; bounds were set here for any values at or beyond the usual limits of such assays
# CONDITION: source organism: Cryptosporidium parvum Iowa II
pKd: −log10 of the molar value.
MEASURED METRIC: pKd

// returns reported pKd for input LPLESCFGV
≤ 4.70

---

# TARGET ENTITY: HLA-A*26:02
# ASSAY SUMMARY: IEDB peptide-MHC binding, purified MHC/competitive/fluorescence; filed as Kd, often an IC50 or EC50 that approximates it; bounds were set here for any values at or beyond the usual limits of such assays
# CONDITION: source organism: Mycobacterium tuberculosis variant bovis BCG str. Pasteur 1173P2
MEASURED METRIC: Kd

Can you look up Kd on HLA-A*26:02 for AVFDSFVER ?
≥ 20 µM

---

# TARGET ENTITY: HLA-A*02:11
# ASSAY SUMMARY: IEDB peptide-MHC binding, purified MHC/competitive/fluorescence; filed as Kd, often an IC50 or EC50 that approximates it; bounds were set here for any values at or beyond the usual limits of such assays
# CONDITION: source organism: Toxoplasma gondii
MEASURED METRIC: Kd (nM)
Field: numeric (nM). Do not append units.

Can you look up Kd on HLA-A*02:11 for SVVEENTMA ?
183

---

# TARGET ENTITY: HLA-B*08:02
# ASSAY SUMMARY: IEDB peptide-MHC binding, purified MHC/direct/fluorescence; filed as Kd, often an IC50 or EC50 that approximates it; bounds were set here for any values at or beyond the usual limits of such assays
# CONDITION: source organism: Influenza A virus(A/swine/Shandong/fZC/2003(H9N2))
pKd: −log10 of the molar value.
MEASURED METRIC: pKd

Can you look up pKd on HLA-B*08:02 for GTEKLTITY ?
≤ 4.70

---

# TARGET ENTITY: HLA-B*15:09
# ASSAY SUMMARY: IEDB peptide-MHC binding, purified MHC/direct/fluorescence; filed as Kd, often an IC50 or EC50 that approximates it; bounds were set here for any values at or beyond the usual limits of such assays
# CONDITION: source organism: Vibrio cholerae V52
pKd: −log10 of the molar value.
MEASURED METRIC: pKd

Can you look up pKd on HLA-B*15:09 for RVHGATVFK ?
≤ 4.70

---

# TARGET ENTITY: HLA-B*39:01
# ASSAY SUMMARY: IEDB peptide-MHC binding, purified MHC/competitive/fluorescence; filed as Kd, often an IC50 or EC50 that approximates it; bounds were set here for any values at or beyond the usual limits of such assays
# CONDITION: source organism: Entamoeba histolytica HM-1:IMSS
MEASURED METRIC: Kd

// returns reported Kd for input IGKMNKHYK
≥ 20 µM

---

# TARGET ENTITY: HLA-B*57:01
# ASSAY SUMMARY: IEDB peptide-MHC binding, purified MHC/competitive/radioactivity; filed as Kd, often an IC50 or EC50 that approximates it; bounds were set here for any values at or beyond the usual limits of such assays
# CONDITION: source organism: Dengue virus 1 Brazil/97-11/1997
MEASURED METRIC: Kd (nM)
Field: numeric (nM). Do not append units.

// returns reported Kd for input QTSGTTTIFA
454

---

# TARGET ENTITY: HLA-A*31:01
# ASSAY SUMMARY: IEDB peptide-MHC binding, purified MHC/direct/fluorescence; filed as Kd, often an IC50 or EC50 that approximates it; bounds were set here for any values at or beyond the usual limits of such assays
# CONDITION: source organism: Salmonella enterica subsp. enterica serovar Typhi
MEASURED METRIC: Kd (nM)
Field: numeric (nM). Do not append units.

// returns reported Kd for input VPQTDAGVT
592

---

# TARGET ENTITY: HLA-A*68:02
# ASSAY SUMMARY: IEDB peptide-MHC binding, purified MHC/competitive/fluorescence; filed as Kd, often an IC50 or EC50 that approximates it; bounds were set here for any values at or beyond the usual limits of such assays
# CONDITION: source organism: Vibrio cholerae V52
MEASURED METRIC: Kd

// returns reported Kd for input IGYRLGMGK
≥ 20 µM

---

# TARGET ENTITY: HLA-A*03:01
# ASSAY SUMMARY: IEDB peptide-MHC binding, purified MHC/competitive/fluorescence; filed as Kd, often an IC50 or EC50 that approximates it; bounds were set here for any values at or beyond the usual limits of such assays
# CONDITION: source organism: human gammaherpesvirus 4
MEASURED METRIC: Kd (nM)
Field: numeric (nM). Do not append units.

Can you look up Kd on HLA-A*03:01 for ILLARLFLY ?
2060

---

# TARGET ENTITY: HLA-B*48:01
# ASSAY SUMMARY: IEDB peptide-MHC binding, purified MHC/direct/fluorescence; filed as Kd, often an IC50 or EC50 that approximates it; bounds were set here for any values at or beyond the usual limits of such assays
# CONDITION: source organism: Yellow fever virus
pKd: −log10 of the molar value.
MEASURED METRIC: pKd

// returns reported pKd for input SRLLMRRMR
≤ 4.70

---

# TARGET ENTITY: HLA-A*26:01
# ASSAY SUMMARY: IEDB peptide-MHC binding, purified MHC/competitive/fluorescence; filed as Kd, often an IC50 or EC50 that approximates it; bounds were set here for any values at or beyond the usual limits of such assays
# CONDITION: source organism: Coxiella burnetii
MEASURED METRIC: Kd

Can you look up Kd on HLA-A*26:01 for KFFMVHSLK ?
≥ 20 µM

---

# TARGET ENTITY: HLA-B*27:03
# ASSAY SUMMARY: IEDB peptide-MHC binding, purified MHC/competitive/fluorescence; filed as Kd, often an IC50 or EC50 that approximates it; bounds were set here for any values at or beyond the usual limits of such assays
# CONDITION: source organism: Vibrio vulnificus YJ016
MEASURED METRIC: Kd

// returns reported Kd for input GMWCVLASR
≥ 20 µM

---

# TARGET ENTITY: HLA-B*08:01
# ASSAY SUMMARY: IEDB peptide-MHC binding, purified MHC/competitive/fluorescence; filed as Kd, often an IC50 or EC50 that approximates it; bounds were set here for any values at or beyond the usual limits of such assays
# CONDITION: source organism: Yersinia pestis Nepal516
MEASURED METRIC: Kd (nM)
Field: numeric (nM). Do not append units.

Can you look up Kd on HLA-B*08:01 for YIYTRSFQM ?
48.7

---

# TARGET ENTITY: HLA-B*07:02
# ASSAY SUMMARY: IEDB peptide-MHC binding, purified MHC/competitive/radioactivity; filed as Kd, often an IC50 or EC50 that approximates it; bounds were set here for any values at or beyond the usual limits of such assays
# CONDITION: source organism: Vaccinia virus Copenhagen
MEASURED METRIC: Kd

Can you look up Kd on HLA-B*07:02 for FILGIIITV ?
≥ 32.7 µM

---

# TARGET ENTITY: HLA-A*24:03
# ASSAY SUMMARY: IEDB peptide-MHC binding, purified MHC/direct/fluorescence; filed as Kd, often an IC50 or EC50 that approximates it; bounds were set here for any values at or beyond the usual limits of such assays
# CONDITION: source organism: Vibrio parahaemolyticus AQ3810
MEASURED METRIC: Kd

// returns reported Kd for input EASTWLDIF
≥ 20 µM

---

# TARGET ENTITY: HLA-B*40:13
# ASSAY SUMMARY: IEDB peptide-MHC binding, purified MHC/competitive/fluorescence; filed as Kd, often an IC50 or EC50 that approximates it; bounds were set here for any values at or beyond the usual limits of such assays
# CONDITION: source organism: Yersinia pestis Nepal516
MEASURED METRIC: Kd (nM)
Field: numeric (nM). Do not append units.

// returns reported Kd for input YSLMSRYQF
13.2

---

In this section, each of the sequences is paired with its reported pKd.
# TARGET ENTITY: HLA-B*53:01
# ASSAY SUMMARY: IEDB peptide-MHC binding, purified MHC/competitive/radioactivity; filed as Kd, often an IC50 or EC50 that approximates it; bounds were set here for any values at or beyond the usual limits of such assays
# CONDITION: source organism: Vaccinia virus WR
pKd here is simply -log10 of the concentration when that concentration is written in mol/L.

Here is how some sequences turned out for pKd.
• LMIFISSFLL = 6.01
• NPDQNTFPNI = 5.43
• KPAMSTYSDI = 5.05
• VPTNDHIPVV = 4.92
• LPNVDLTTM = 9.65
• SPAHLINKLL = 5.16
• KPDHDGNTPL = 5.15

Please turn your attention to the following entry.
// returns reported pKd for input SPGEIKPKF
6.76
